The reported numbers originate from patent US6583147B1.

Test system: rats
Assay: Penile erection test using rats
Format: in vivo, rat
Details: oral single dose 10 mg/kg in 0.5% methyl cellulose, observed for 2 hours
measured_parameter: PEI (penile erection index)

Study these solved cases before continuing.
# compound, PEI (penile erection index)
measured = [
    ("CCCNS(=O)(=O)c1ccc(OCC)c(-c2nc3c(CCC)nn(CC)c3c(=O)[nH]2)c1 [Example 8]", "200.0 ± 100.0"),
    ("CCCc1nn(C)c2c(=O)[nH]c(-c3cc(S(=O)(=O)NC(C)C)ccc3OCC)nc12 [Example 1]", "366.7 ± 38.5"),
    ("CCCc1nn(CC)c2c(=O)[nH]c(-c3cc(S(=O)(=O)NC4CC4)ccc3OCC)nc12 [Example 14]", "233.3 ± 57.7"),
    ("CCOc1ccc(S(=O)(=O)NC2CCCCC2)cc1-c1nc2c(CC(C)C)nn(C)c2c(=O)[nH]1 [Example 20]", "266.7 ± 57.7"),
]

# ---- query compound ----
INPUT: Any idea what its PEI (penile erection index) is? The compound is CCCOc1ccc(S(=O)(=O)NCCC2CCCN2C)cc1-c1nc2c(CCC)nn(C)c2c(=O)[nH]1 (centres unmarked) [Example 68]
OUTPUT: 233.3 ± 152.8
